Exercise: state measured Corn plant response rating for each of the compounds provided.
tested on: corn; assay: Test C preemergence; type: in vivo, Zea mays; conditions: Test C, preemergence, 125 g ai/ha; 0 to 100 scale (0 no effect, 100 complete control)
Please reply with the number alone, leaving off any unit.

Task: // Input: `COc1cc(-n2cnc(C(C)C)n2)cc(C(=O)N2C[C@H](C)Oc3c(Cl)cccc32)c1OC` . Output its Corn plant response rating only.
Result: 0

Task: Please give measured Corn plant response rating of the following entry: `COC[C@H]1CN(C(=O)c2cc(-n3cncn3)ccc2C)c2cccc(Cl)c2O1`
Result: 20

Task: Identify measured Corn plant response rating corresponding to Cc1cccc2c1OC(C(F)(F)F)CN2C(=O)c1cccc(-n2cnc(C(C)C)n2)c1 (single isomer, unassigned) [Compound 303]
Result: 0

Task: Recall and state the measured Corn plant response rating for `COc1c(C)cc(-n2cnc(C(C)C)n2)cc1C(=O)N1C[C@H](C)Oc2c(Cl)cccc21` .
Result: 0
